- APPLIED_CONDITIONS: buffer; pH 7.4; 200.0 µM
QUANTITY_NAME: solubility kinetic (µg/mL)
Write the value in µg/mL as a bare number.

>>> result_number("CCOC(=O)c1cc(/C(C)=N/OC(=O)c2ccc(Cl)cc2)on1")
0.6
>>> result_number("CCOc1cc(C#N)ccc1OCC(=O)N1CCc2ccccc2C1")
45.5

Req: Answer with reported solubility kinetic of O=C(Nc1cc(-c2nc3ncccc3o2)ccc1Cl)c1ccco1
Resp: 4.4

Req: Answer with reported solubility kinetic of CC(C)(C)NC(=S)NC1CC1
Resp: 25.8

Req: Answer with reported solubility kinetic of Cc1nc2ccccc2c(=O)n1-c1ccc(Cl)cc1[N+](=O)[O-]
Resp: 7.2

Req: Answer with reported solubility kinetic of Oc1c(Cl)cc(Cl)c2c1NCCC2
Resp: 7

Req: Answer with reported solubility kinetic of CC(C)c1ccc(NC(=O)COC(=O)[C@@H]2CCCN2C(=O)c2cccs2)cc1
Resp: 13.3
